system.tested: T1, TNFR1 (Homo sapiens, UniProt P19438)
T1 chain: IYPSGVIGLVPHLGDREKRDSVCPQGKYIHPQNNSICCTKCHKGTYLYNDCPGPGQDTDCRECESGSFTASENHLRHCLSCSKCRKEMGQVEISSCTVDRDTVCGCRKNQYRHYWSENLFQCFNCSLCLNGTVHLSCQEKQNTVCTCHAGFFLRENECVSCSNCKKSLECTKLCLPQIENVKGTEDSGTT
test.summary: yeast display SC50
assay.readout: apparent Kd (screen) (pM)
Answers are plain numbers, in pM.

1. K93F (designed binder) SMEEEVEKAAKEYEKKKKEAIEKHLEKLKAKDKEAAERFLKELEEAAKEYAKDEAKTMSEEEAKRRAKKYKEKVLLSELSEEEQKEIKEAEEFLVRTILKYVEEAAK; 653
2. T97F (designed binder) SMEEEVEKAAKEYEKKKKEAIEKHLEKLKAKDKEAAERFLKELEEAAKEYAKDEAKTMSEEEAKRRAKKYKEKVLLSELSEEEQKEIKEAEEKLVRFILKYVEEAAK; 405
3. K64R (designed binder) SMEEEVEKAAKEYEKKKKEAIEKHLEKLKAKDKEAAERFLKELEEAAKEYAKDEAKTMSEEEARRRAKKYKEKVLLSELSEEEQKEIKEAEEKLVRTILKYVEEAAK; 869

For every record below, what is its apparent Kd (screen)?
1. K18F (designed binder) SMEEEVEKAAKEYEKKKFEAIEKHLEKLKAKDKEAAERFLKELEEAAKEYAKDEAKTMSEEEAKRRAKKYKEKVLLSELSEEEQKEIKEAEEKLVRTILKYVEEAAK
2. K93W (designed binder) SMEEEVEKAAKEYEKKKKEAIEKHLEKLKAKDKEAAERFLKELEEAAKEYAKDEAKTMSEEEAKRRAKKYKEKVLLSELSEEEQKEIKEAEEWLVRTILKYVEEAAK
3. A106Q (designed binder) SMEEEVEKAAKEYEKKKKEAIEKHLEKLKAKDKEAAERFLKELEEAAKEYAKDEAKTMSEEEAKRRAKKYKEKVLLSELSEEEQKEIKEAEEKLVRTILKYVEEAQK
4. K11E (designed binder) SMEEEVEKAAEEYEKKKKEAIEKHLEKLKAKDKEAAERFLKELEEAAKEYAKDEAKTMSEEEAKRRAKKYKEKVLLSELSEEEQKEIKEAEEKLVRTILKYVEEAAK
5. A46W (designed binder) SMEEEVEKAAKEYEKKKKEAIEKHLEKLKAKDKEAAERFLKELEEWAKEYAKDEAKTMSEEEAKRRAKKYKEKVLLSELSEEEQKEIKEAEEKLVRTILKYVEEAAK

*A*
[869, 2730, 2050, 446, 2250]
